target.or.test.system: human folate receptor 1 (FOLR1) (human)
Sequence (chain, as listed by the source limits assumed): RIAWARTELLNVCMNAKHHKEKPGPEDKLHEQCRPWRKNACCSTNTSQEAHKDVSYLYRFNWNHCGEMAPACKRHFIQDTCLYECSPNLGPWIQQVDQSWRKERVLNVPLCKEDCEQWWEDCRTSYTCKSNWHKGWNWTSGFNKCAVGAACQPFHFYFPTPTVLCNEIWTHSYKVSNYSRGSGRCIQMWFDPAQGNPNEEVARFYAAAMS
test.details: cell-based or functional assay
Listing: huAb-smcc-DM1 activity on KB in vitro of selected binders

binder: huFR1-48-SMCC-DM1 (antibody, V domains shown, maytansinoid DM1 linked to the antibody through the SMCC linker; drug load and attachment residues not stated) VH: QVQLVQSGAEVAKPGASVKLSCKASGYTFTNYWMQWIKQRPGQGLEWIGAIYPGNGDSRYTQKFQGKATLTADKSSSTAYMQVSSLTSEDSAVYYCARRDGNYAAYWGQGTLVTVSA VL: DIQMTQSPSSLSVSVGERVTITCRASENIYSNLAWYQQKPGKSPKLLVYAATNLADGVPSRFSGSESGTDYSLKINSLQPEDFGSYYCQHFWASPYTFGQGTKLEIKR
huAb-smcc-DM1 activity on KB in vitro, nM: 0.05

binder: huFR1-57-SMCC-DM1 (antibody, V domains shown, maytansinoid DM1 linked to the antibody through the SMCC linker; drug load and attachment residues not stated) VH: EVQLVESGGGLVQPGGSRRLSCAASGFTFSSFGMHWVRQAPGKGLEWVAYISSGSSTISYADSVKGRFTISRDNSKKTLLLQMTSLRAEDTAMYYCAREAYGSSMEYWGQGTLVTVSS VL: EIVLTQSPATLSVTPGDRVSLSCRASQNINNNLHWYQQKPGQSPRLLIKYVSQSVSGIPDRFSGSGSGTDFTLSISSVEPEDFGMYFCQQSNSWPHYTFGQGTKLEIKR
huAb-smcc-DM1 activity on KB in vitro, nM: 0.1

binder: huFR1-65-SMCC-DM1 (antibody, V domains shown, maytansinoid DM1 linked to the antibody through the SMCC linker; drug load and attachment residues not stated) VH: QVQLVQSGAEVAKPGASVKMSCKASGYTFTSYTMHWVKQRPGQGLAWIGYINPISGYTNYNQKFQGKATLTADKSSSTAYMQLNSLTSEDSAVYYCASGGAYGRKPMDYWGQGTSVTVSS VL: EIVMTQSPATMSTSPGDRVSVTCKASQNVGPNVAWYQQKPGQSPRALIYSASYRYSGVPARFTGSGSGTDFTLTISNMQSEDLAEYFCQQYNSYPYTFGQGTKLEIKR
huAb-smcc-DM1 activity on KB in vitro, nM: 0.1

binder: huFR1-49-SMCC-DM1 (antibody, V domains shown, maytansinoid DM1 linked to the antibody through the SMCC linker; drug load and attachment residues not stated) VH: QVQLQQSGAVVAKPGASVKMSCKASGYTFTNYWMYWIKQRPGQGLELIGAIYPGNSDTTYNQKFQGKATLTAVTSANTVYMEVSSLTSEDSAVYYCTKRHDYGAMDYWGQGTSVTVSS VL: DIQMTQSPSSLSVSVGERVTITCRASENIYTNLAWYQQKPGKSPKLLVYTASNLADGVPSRFSGSGSGTDYSLKINSLQPEDFGTYYCQHFWVSPYTFGQGTKLEIKR
huAb-smcc-DM1 activity on KB in vitro, nM: 0.1
